# Assay system: human Factor IXa (human, UniProt P00740 47-191; P00740 227-461)
# Assay explanation: cell-based or functional assay
Bridge positions count the residues as written; N and C are the ends. Square brackets hold non-standard residues; d marks the D form. Primed or numbered codes have the meaning given here. Side chains are listed from the residue outwards. Ends that are not written are not given here. * marks the point of attachment. Biotin = O=C1N[C@H]2[C@H](CS[C@H]2CCCCC(=O)*)N1; NMeT = CN[C@H](C(=O)O)[C@@H](C)O; NMeL = CN[C@@H](CC(C)C)C(=O)O; PEG16″ = not defined here; Orn = NCCC[C@H](N)C(=O)O; PEG2″ = not defined here; PEG4″ = PEG4 spacer unit; Dap = NC[C@H](N)C(=O)O
The reader will find reported EC50 [µM], FXa generation assay values listed item by item below.

# Binder, EC50 [µM], FXa generation assay
measured = [
    ("RRAPGKLTCLASYCWLFWTGLASTLYKTYTRE [RRAPGKLTCLASYCWLF WTGLA STLYKTYTRE]", "> 1 µM"),
    ("[dR]RAPGKLTCLASYCWLFWTGIA[PEG16″]K([PEG2″-Biotin])[PEG16″] (cysteine pairing not given here) [rRAPGKLTCLASYCWLFWTGIA-PEG16-Lys(PEG2-Biotin)-PEG16]", "< 0.5 µM"),
    ("[dR][dR][dA][dP]G[dK][dL][dT][dC][dL][dA][dS][dY][dC][dW][dL][dF][dW][dT]G[dI][dA] (not fully specified; printed as rrapgkltclasycwlfwtgia (inverso); cysteine pairing not given here) [rrapgkltclasycwlfwtgia (inverso)]", "< 0.5 µM"),
    ("ARAPGKLQCLASYCWLFWTGIA", "< 0.5 µM"),
    ("RRAPGKLTCLASYCWLFWRGFAERASEDTNQG [RRAPGKLTCLASYCWLF WRGFA ERASEDTNQG]", "> 1 µM"),
    ("HQQRRKLTCLAGYCWLFVLGPS (not fully specified; cysteine pairing not given here)", "> 1 µM"),
    ("SKQGRPISPD[dR]RAAGKLTCLASYCWLFWTGIA[PEG4″]C(N‑PEG5k maleimide) (cysteine pairing not given here) [SKQGRPISPDrRAAGKLTCLASYCWLFWTGIA-PEG4-C(N-PEG5k maleimide)]", "> 5 µM"),
    ("RRAPGKLTCLASYAWCFWTGIA-OH (cysteine pairing not given here) [RRAPGKLTCLASYAWCFWTGIA-COOH]", "> 1 µM"),
    ("RRAPGKLTCLASYCWL[dF]WTGIA (not fully specified (C-terminus, bridges); printed as RRAPGKLTCLASYCWLfWTGIA; cysteine pairing not given here) [RRAPGKLTCLASYCWLfWTGIA]", "< 0.5 µM"),
    ("RGRSAKLRCLASYCWLFFTVIL", "< 0.5 µM"),
    ("CGGSGGRRAPGKLQCLASYCWLFWTGIAGGSGGC", "> 1 µM"),
    ("RRAPGKLTCLASYCWLFWAVIAPPKVKGTRQS [RRAPGKLTCLASYCWLF WAVIA PPKVKGTRQS]", "> 1 µM"),
    ("KLTC[NMeL]ASYCWLF (cysteine pairing not given here) [KLTC-MeLeu-ASYCWLF]", "> 20 µM"),
    ("KL[NMeT]CLASYCWLF (cysteine pairing not given here) [KL-MeThr-CLASYCWLF]", "< 0.5 µM"),
    ("RRAPGKLTCLASYCWLFWTGFAFRVGLASSLY [RRAPGKLTCLASYCWLF WTGFA FRVGLASSLY]", "< 0.5 µM"),
    ("SKQGRPISPDRRAAGKLTDLASY[Orn]WLFWTGIA (not fully specified; printed as SKQGRPISPDRRAAGKLT-Asp-LASY-Orn-WLFWTGIA) [SKQGRPISPDRRAAGKLT-Asp-LASY-Orn-WLFWTGIA]", "< 0.5 µM"),
    ("RRAPGKLTCLASYCW[NMeL]FWTGIA (not fully specified (bridges); printed as RRAPGKLTCLASYCW-MeLeu-FWTGIA; cysteine pairing not given here) [RRAPGKLTCLASYCW-MeLeu-FWTGIA]", "> 10 µM"),
    ("RRA[dP]GKLTCLASYCWLFWTGIA (disulfide 9-14 (inferred)) [RRApGKLTCLASYCWLFWTGIA]", "< 0.5 µM"),
    ("[Dap]LTCLASYCWLF (not fully specified; printed as Dpr-LTCLASYCWLF; cysteine pairing not given here) [Dpr-LTCLASYCWLF]", "> 1 µM"),
    ("SRIRTVGPGSRSASGKLTCLASYCWLFWTGIA", "< 0.5 µM"),
]
